Assign pKi to each entry below.
pKi: −log10 of the molar value.

I looked up COc1ccc2c3c1O[C@H]1[C@H](N(C)C(=O)/C=C/c4ccoc4)CC[C@@]4(O)[C@@H](C2)N(S(=O)(=O)c2ccc(N(C)C)cc2)CC[C@]314.Cl and its pKi for UniProt P41145 was < 6.00

Reading of pKi for CN(C)c1ccc(S(=O)(=O)N2CC[C@]34c5c6ccc(O)c5O[C@H]3[C@H](N(C)C(=O)/C=C/c3ccoc3)CC[C@@]4(O)[C@H]2C6)cc1 with UniProt P41145: 6.70

Per the reported UniProt P41145 data, COc1ccc2c3c1O[C@H]1[C@H](N(C)C(=O)/C=C/c4ccccn4)CC[C@@]4(O)[C@@H](C2)N(S(=O)(=O)c2ccccc2N(C)C)CC[C@]314.O=S(=O)(O)O.O=S(=O)(O)O has pKi of < 6.00

Record COc1ccc2c3c1O[C@H]1[C@H](N(C)C(=O)/C=C/c4ccoc4)CC[C@@]4(O)[C@@H](C2)N(C(=O)/C=C/c2ccccc2)CC[C@]314 / UniProt P41145, pKi recorded as < 6.00

Observed pKi, UniProt P41145, COc1ccc2c3c1O[C@H]1[C@H](N(C)C(=O)/C=C/c4ccoc4)CC[C@@]4(O)[C@@H](C2)N(C(=O)OC(C)(C)C)CC[C@]314 : 6.74

UniProt P41145 data for Cc1cc(NC(=O)Nc2ccc(N(C)C)cc2)c2cc(F)cc(F)c2n1.Cl.Cl ; its pKi: < 6.00

Item: COc1ccc2c3c1O[C@H]1[C@H](N(C)C(=O)/C=C/c4ccoc4)CC[C@@]4(O)[C@@H](C2)N(C(=O)C2CC2)CC[C@]314 | System: UniProt P41145 | pKi: < 6.00

pKi for UniProt P41145 with input COc1ccc2c3c1O[C@H]1[C@H](N(C)C(=O)/C=C/c4ccoc4)CC[C@@]4(O)[C@@H](C2)N(S(=O)(=O)c2ccccc2)CC[C@]314 equals < 6.00

----------
# assay_name: Solubility of the compound in water
# Format: physicochemical
# conditions_used: buffer
property_name: solubility

# chem_smiles, property_name, experimental_result
measured = [
    ("COc1ccc2c3c1O[C@H]1[C@H](N(C)C(=O)/C=C/c4ccoc4)CC[C@@]4(O)[C@@H](C2)N(S(=O)(=O)c2ccc(C)cc2)CC[C@]314", "solubility", "Insoluble"),
    ("COc1ccc2c3c1O[C@H]1[C@H](N(C)C(=O)/C=C/c4ccoc4)CC[C@@]4(O)[C@@H](C2)N(S(=O)(=O)c2ccc(N(C)C)cc2)CC[C@]314.Cl", "solubility", "Insoluble"),
    ("CCCCS(=O)(=O)N1CC[C@]23c4c5ccc(OC)c4O[C@H]2[C@H](N(C)C(=O)/C=C/c2ccoc2)CC[C@@]3(O)[C@H]1C5", "solubility", "Insoluble"),
]

----------
Please go through the items and note down their log10 Ki.
# tested_on: Orexin/Hypocretin receptor type 1 (Homo sapiens)
# assay_name: Antagonist activity at human OX1R expressed in CHOK1 cells assessed as inhibition of orexin A-induced intracellular calcium level preincubated for 15 mins followed by orexin A addition by Fura-2-AM dye based fluorescence assay
Values are log10 of Ki in nM.

For record COc1ccc2c3c1O[C@H]1[C@H](N(C)C(=O)/C=C/c4ccoc4)CC[C@@]4(O)[C@@H](C2)N(S(=O)(=O)c2ccccc2Cl)CC[C@]314 the listed log10 Ki is 0.29

Kindly note the recorded log10 Ki for COc1ccc2c3c1O[C@H]1[C@H](N(C)C(=O)/C=C/c4ccoc4)CC[C@@]4(O)[C@@H](C2)N(S(=O)(=O)c2cccc(C(F)(F)F)c2)CC[C@]314 , which is 0.79

The reported value for COc1ccc2c3c1O[C@H]1[C@H](N(C)C(=O)/C=C/c4ccoc4)CC[C@@]4(O)[C@@H](C2)N(CC2CC2)CC[C@]314 in terms of log10 Ki is 1.35

The compound identified as CN(C(=O)/C=C/c1ccco1)[C@@H]1CC[C@@]2(O)[C@H]3Cc4ccc(O)c5c4[C@@]2(CCN3CC2CC2)[C@H]1O5 registered its log10 Ki at 2.88

Reported log10 Ki ( COc1ccc2c3c1O[C@H]1[C@H](N(C)C(=O)/C=C/c4ccoc4)CC[C@@]4(O)[C@@H](C2)N(C(=O)c2ccc(C)cc2)CC[C@]314 ) = 1.15

// log10 Ki value for COc1ccc2c3c1O[C@H]1[C@H](N(C)C(=O)/C=C/c4cccnc4)CC[C@@]4(O)[C@@H](C2)N(S(=O)(=O)c2ccccc2N(C)C)CC[C@]314 : 1.63

----------
Field: Ki. Provide a value for each of the molecules that follow.
# tested_on: Delta-type opioid receptor (Homo sapiens)
# Sequence (P41143 whole entry): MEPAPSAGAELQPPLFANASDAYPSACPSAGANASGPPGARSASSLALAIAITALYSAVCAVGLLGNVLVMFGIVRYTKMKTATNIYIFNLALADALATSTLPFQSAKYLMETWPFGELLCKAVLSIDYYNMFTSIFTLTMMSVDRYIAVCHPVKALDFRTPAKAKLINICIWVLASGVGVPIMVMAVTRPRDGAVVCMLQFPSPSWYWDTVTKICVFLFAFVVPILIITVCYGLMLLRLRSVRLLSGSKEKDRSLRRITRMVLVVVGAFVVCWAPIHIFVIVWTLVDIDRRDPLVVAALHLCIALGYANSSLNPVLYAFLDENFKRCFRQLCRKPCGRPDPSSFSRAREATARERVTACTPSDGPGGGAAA
# assay_name: Displacement of [3H]DPDPE from human delta opioid receptor expressed in CHO cell membranes by micro-beta scintillation counting method

Reported Ki ( Cc1cc(NC(=O)Nc2ccc(N(C)C)cc2)c2cc(F)cc(F)c2n1.Cl.Cl ) = > 1 µM

Entry CN(C)c1ccc(S(=O)(=O)N2CC[C@]34c5c6ccc(O)c5O[C@H]3[C@H](N(C)C(=O)/C=C/c3ccoc3)CC[C@@]4(O)[C@H]2C6)cc1 — recorded Ki = > 1 µM

In plain terms, COc1ccc2c3c1O[C@H]1[C@H](N(C)C(=O)/C=C/c4ccccn4)CC[C@@]4(O)[C@@H](C2)N(S(=O)(=O)c2ccccc2N(C)C)CC[C@]314.O=S(=O)(O)O.O=S(=O)(O)O has a documented Ki of > 1 µM

----------
Answer each item with its documented pKi.
# tested_on: Orexin/Hypocretin receptor type 1 (Homo sapiens, UniProt O43613)
# Sequence (O43613 whole entry): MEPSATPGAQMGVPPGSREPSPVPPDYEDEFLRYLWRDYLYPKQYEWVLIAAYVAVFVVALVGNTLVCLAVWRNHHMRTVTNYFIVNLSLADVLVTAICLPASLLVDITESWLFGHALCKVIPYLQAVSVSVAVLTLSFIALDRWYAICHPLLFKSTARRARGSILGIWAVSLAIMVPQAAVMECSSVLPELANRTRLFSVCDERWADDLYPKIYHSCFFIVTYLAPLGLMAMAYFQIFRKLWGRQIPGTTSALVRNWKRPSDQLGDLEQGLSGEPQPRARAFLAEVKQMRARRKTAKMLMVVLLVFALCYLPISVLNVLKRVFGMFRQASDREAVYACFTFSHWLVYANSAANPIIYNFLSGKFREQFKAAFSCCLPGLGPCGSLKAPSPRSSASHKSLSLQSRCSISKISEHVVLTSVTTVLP
# assay_name: Antagonist activity at human OX1R expressed in CHOK1 cells assessed as inhibition of orexin A-induced intracellular calcium level preincubated for 15 mins followed by orexin A addition by Fura-2-AM dye based fluorescence assay
Please express pKi as -log10 of the molar concentration.

The compound listed as COc1ccc2c3c1O[C@H]1[C@H](N(C)C(=O)/C=C/c4ccoc4)CC[C@@]4(O)[C@@H](C2)N(S(=O)(=O)C2CC2)CC[C@]314 has a reported pKi of 7.92

In plain terms, COc1ccc2c3c1O[C@H]1[C@H](N(C)C(=O)/C=C/c4ccoc4)CC[C@@]4(O)[C@@H](C2)N(S(=O)(=O)c2ccccc2F)CC[C@]314 has a documented pKi of 8.68

For COc1ccc2c3c1O[C@H]1[C@H](N(C)C(=O)/C=C/c4ccoc4)CC[C@@]4(O)[C@@H](C2)N(S(=O)(=O)c2cccc([N+](=O)[O-])c2)CC[C@]314 the compound record lists pKi as 8.30

pKi measured on COc1ccc2c3c1O[C@H]1[C@H](N(C)C(=O)/C=C/c4ccoc4)CC[C@@]4(O)[C@@H](C2)N(S(=O)(=O)c2cccc(F)c2)CC[C@]314 = 8.12

COc1ccc2c3c1O[C@H]1[C@H](N(C)C(=O)/C=C/c4ccoc4)CC[C@@]4(O)[C@@H](C2)N(S(=O)(=O)c2ccc(Cl)cc2)CC[C@]314 yielded pKi of 8.29

The reported value for COc1ccc2c3c1O[C@H]1[C@H](N(C)C(=O)/C=C/c4ccoc4)CC[C@@]4(O)[C@@H](C2)N(S(=O)(=O)c2ccccc2Br)CC[C@]314 in terms of pKi is 8.68

----------
# assay_name: Solubility of the compound in water
# Type: physicochemical
# conditions_used: buffer
property_name: solubility

Example entries and their recorded answers appear below.
# chem_smiles, experimental_result
records = [
    ("COc1ccc2c3c1O[C@H]1[C@H](N(C)C(=O)/C=C/c4ccoc4)CC[C@@]4(O)[C@@H](C2)N(S(=O)(=O)c2ccc(Cl)cc2)CC[C@]314", "Insoluble"),
    ("COc1ccc2c3c1O[C@H]1[C@H](N(C)C(=O)/C=C/c4ccoc4)CC[C@@]4(O)[C@@H](C2)N(S(=O)(=O)c2ccc(C#N)cc2)CC[C@]314", "Insoluble"),
    ("COc1ccc2c3c1O[C@H]1[C@H](N(C)C(=O)/C=C/c4ccoc4)CC[C@@]4(O)[C@@H](C2)N(C(=O)OC(C)(C)C)CC[C@]314", "Insoluble"),
    ("COc1ccc2c3c1O[C@H]1[C@H](N(C)C(=O)/C=C/c4ccoc4)CC[C@@]4(O)[C@@H](C2)N(S(=O)(=O)c2cccc(Br)c2)CC[C@]314", "Insoluble"),
]

Lab book: solubility of COc1ccc2c3c1O[C@H]1[C@H](N(C)C(=O)/C=C/c4ccoc4)CC[C@@]4(O)[C@@H](C2)N(S(=O)(=O)c2ccccc2Cl)CC[C@]314 noted as Insoluble

The recorded solubility for COc1ccc2c3c1O[C@H]1[C@H](N(C)C(=O)/C=C/c4ccoc4)CC[C@@]4(O)[C@@H](C2)N(S(=O)(=O)c2ccccc2C#N)CC[C@]314 is Insoluble

Per the record, COc1ccc2c3c1O[C@H]1[C@H](N(C)C(=O)/C=C/c4ccoc4)CC[C@@]4(O)[C@@H](C2)N(S(=O)(=O)C2CC2)CC[C@]314 has solubility of Insoluble

Measured solubility, COc1ccc2c3c1O[C@H]1[C@H](N(C)C(=O)/C=C/c4ccoc4)CC[C@@]4(O)[C@@H](C2)N(S(=O)(=O)c2ccccc2Br)CC[C@]314 : Insoluble

// sample COc1ccc2c3c1O[C@H]1[C@H](N(C)C(=O)/C=C/c4ccoc4)CC[C@@]4(O)[C@@H](C2)N(S(=O)(=O)c2cccc([N+](=O)[O-])c2)CC[C@]314 , its solubility was Insoluble

Form field solubility, entry CN(C(=O)/C=C/c1ccco1)[C@@H]1CC[C@@]2(O)[C@H]3Cc4ccc(O)c5c4[C@@]2(CCN3CC2CC2)[C@H]1O5 : Insoluble

Documented solubility of COc1ccccc1S(=O)(=O)N1CC[C@]23c4c5ccc(OC)c4O[C@H]2[C@H](N(C)C(=O)/C=C/c2ccoc2)CC[C@@]3(O)[C@H]1C5 : Insoluble

Please fill in: solubility reported for COc1ccc2c3c1O[C@H]1[C@H](N(C)C(=O)/C=C/c4ccoc4)CC[C@@]4(O)[C@@H](C2)N(S(=O)(=O)c2cccc(F)c2)CC[C@]314 = Insoluble

Briefly, solubility measured for Cc1cc(NC(=O)Nc2ccc(N(C)C)cc2)c2cc(F)cc(F)c2n1.Cl.Cl : Insoluble

COc1ccc2c3c1O[C@H]1[C@H](N(C)C(=O)/C=C/c4ccoc4)CC[C@@]4(O)[C@@H](C2)N(S(=O)(=O)c2ccccc2C)CC[C@]314 yielded solubility of Insoluble
